TARGET_OR_TEST_SYSTEM: T1, soluble LGR5-Fc fusion protein (human, UniProt O75473 22-564)
T1 construct: range 22-564; Expressed in insect cells with baculovirus, purified on protein A; not shown: human Fc
T1 sequence (looked up): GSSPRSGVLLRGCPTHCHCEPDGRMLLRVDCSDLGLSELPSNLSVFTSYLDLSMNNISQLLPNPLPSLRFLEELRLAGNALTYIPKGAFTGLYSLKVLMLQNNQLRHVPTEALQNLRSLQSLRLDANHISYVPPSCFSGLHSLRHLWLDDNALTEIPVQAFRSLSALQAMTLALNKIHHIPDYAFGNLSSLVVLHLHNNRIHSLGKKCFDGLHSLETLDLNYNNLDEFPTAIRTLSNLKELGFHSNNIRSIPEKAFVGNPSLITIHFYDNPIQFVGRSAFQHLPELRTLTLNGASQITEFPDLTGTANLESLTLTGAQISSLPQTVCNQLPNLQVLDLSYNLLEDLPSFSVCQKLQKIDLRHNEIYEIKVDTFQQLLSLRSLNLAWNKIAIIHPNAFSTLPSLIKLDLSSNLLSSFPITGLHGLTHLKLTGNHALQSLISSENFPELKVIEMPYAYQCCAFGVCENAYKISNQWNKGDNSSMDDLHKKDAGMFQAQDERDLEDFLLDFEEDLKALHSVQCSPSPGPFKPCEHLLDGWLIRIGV
METHOD: SPR (Biacore 2000), RSPO-Fc immobilized on CM5 chip, soluble LGR5-Fc injected 100 nM to 0.78 nM
Attribute: Kd

BINDER | Kd
recombinant human RSPO1-Fc fusion protein (Fc fusion, not shown: human Fc region) SRGIKGKRQRRISAEGSQACAKGCELCSEVNGCLKCSPKLFILLERNDIRQVGVCLPSCPPGYFDARNPDMNKCIKCKIEHCEACFSHNFCTKCKEGLYLHKGRCYPACPEGSSAANGTMECSSPAQCEMSEWSPWGPCSKKQQLCGFRRGSEERTRRVLHAPVGDHAACSDTKETRRCTVRRVPCPEGQKRRKGGQGRRENANRNLARKESKEAGAGSRRRKGQQQQQQQGTVGPLTSAGPA | 110 nM
recombinant human RSPO2-Fc fusion protein (Fc fusion, not shown: human Fc region) QGNRWRRSKRASYVSNPICKGCLSCSKDNGCSRCQQKLFFFLRREGMRQYGECLHSCPSGYYGHRAPDMNRCARCRIENCDSCFSKDFCTKCKVGFYLHRGRCFDECPDGFAPLEETMECVEGCEVGHWSEWGTCSRNNRTCGFKWGLETRTRQIVKKPVKDTIPCPTIAESRRCKMTMRHCPGGKRTPKAKEKRNKKKKRKLIERAQEQHSVFLATDRANQ | 14 nM
recombinant human RSPO4-Fc fusion protein (Fc fusion, not shown: human Fc region) LNRRKKQVGTGLGGNCTGCIICSEENGCSTCQQRLFLFIRREGIRQYGKCLHDCPPGYFGIRGQEVNRCKKCGATCESCFSQDFCIRCKRQFYLYKGKCLPTCPPGTLAHQNTRECQGECELGPWGGWSPCTHNGKTCGSAWGLESRVREAGRAGHEEAATCQVLSESRKCPIQRPCPGERSPGQKKGRKDRRPRKDRKLDRRLDVRPRQPGLQP | 73 nM
recombinant human RSPO3-Fc fusion protein (Fc fusion, not shown: human Fc region) QNASRGRRQRRMHPNVSQGCQGGCATCSDYNGCLSCKPRLFFALERIGMKQIGVCLSSCPSGYYGTRYPDINKCTKCKADCDTCFNKNFCTKCKSGFYLHLGKCLDNCPEGLEANNHTMECVSIVHCEVSEWNPWSPCTKKGKTCGFKRGTETRVREIIQHPSAKGNLCPPTNETRKCTVQRKKCQKGERGKKGRERKRKKPNKGESKEAIPDSKSLESSKEIPEQRENKQQQKKRKVQDKQKSVSVSTVH | < 1 nM
